# assayedTarget: Myeloperoxidase (Homo sapiens)
# Sequence (P05164 165-273 limits assumed): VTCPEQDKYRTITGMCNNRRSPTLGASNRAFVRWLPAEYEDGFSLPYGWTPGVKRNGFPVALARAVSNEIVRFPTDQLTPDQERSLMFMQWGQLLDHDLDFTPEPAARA
# Sequence (P05164 279-745 limits assumed): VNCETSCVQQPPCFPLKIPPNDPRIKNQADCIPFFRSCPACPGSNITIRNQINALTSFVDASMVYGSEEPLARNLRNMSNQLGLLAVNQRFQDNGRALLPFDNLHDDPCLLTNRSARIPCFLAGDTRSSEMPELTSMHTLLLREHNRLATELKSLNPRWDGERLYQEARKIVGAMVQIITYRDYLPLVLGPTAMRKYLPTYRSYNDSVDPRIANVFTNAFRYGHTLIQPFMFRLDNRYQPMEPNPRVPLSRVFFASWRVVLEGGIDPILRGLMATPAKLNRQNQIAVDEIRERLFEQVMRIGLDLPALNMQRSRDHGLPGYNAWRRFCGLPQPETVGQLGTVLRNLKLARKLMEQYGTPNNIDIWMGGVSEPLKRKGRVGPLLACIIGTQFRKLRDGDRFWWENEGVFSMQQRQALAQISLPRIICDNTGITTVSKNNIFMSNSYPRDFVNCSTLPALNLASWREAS
# procedureDetails: Inhibition of human MPO peroxidase activity in presence of H2O2 measured at 30 secs time interval for 5 mins by amplex red reagent based fluorescence assay
Provide the recorded pIC50 for the entries that follow.
Just the number, please; pIC50 means minus log10 of the concentration in mol/L.

Data point: Nc1nc(OCc2ccccc2)c2[nH]nnc2n1 ; pIC50 = 6.96

Item: O=c1[nH]c(=S)n(C[C@H]2CCCO2)c2nc[nH]c12 | pIC50: 7.92

Entry under test: Nc1ccc(Oc2cc(Cl)c(Cl)cc2Cl)cn1 . Its pIC50 was 6.08

* * *

# assayedTarget: Eosinophil peroxidase (Homo sapiens)
# Sequence (P11678 whole entry): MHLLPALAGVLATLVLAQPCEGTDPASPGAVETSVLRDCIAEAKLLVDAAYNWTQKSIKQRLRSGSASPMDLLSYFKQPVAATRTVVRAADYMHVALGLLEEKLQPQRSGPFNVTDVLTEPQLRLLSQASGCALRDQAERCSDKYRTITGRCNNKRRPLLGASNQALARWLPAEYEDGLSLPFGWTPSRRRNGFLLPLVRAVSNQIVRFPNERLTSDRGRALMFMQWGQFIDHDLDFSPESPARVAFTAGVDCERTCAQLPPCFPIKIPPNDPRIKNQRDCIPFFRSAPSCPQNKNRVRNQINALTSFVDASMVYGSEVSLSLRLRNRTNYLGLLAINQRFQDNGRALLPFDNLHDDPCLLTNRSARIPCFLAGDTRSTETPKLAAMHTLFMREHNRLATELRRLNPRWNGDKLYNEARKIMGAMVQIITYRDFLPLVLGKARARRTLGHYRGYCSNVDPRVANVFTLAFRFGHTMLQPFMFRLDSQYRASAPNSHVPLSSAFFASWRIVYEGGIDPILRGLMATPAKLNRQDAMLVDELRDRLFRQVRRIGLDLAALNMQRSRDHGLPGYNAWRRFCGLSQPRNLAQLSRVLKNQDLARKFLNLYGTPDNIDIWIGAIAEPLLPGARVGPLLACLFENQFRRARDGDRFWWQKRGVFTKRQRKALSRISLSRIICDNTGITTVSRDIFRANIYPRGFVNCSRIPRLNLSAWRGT
# procedureDetails: Inhibition of eosinophil peroxidase (unknown origin)assessed as reduction in H2O2-catalyzed 3-bromo tyrosine formation using tyrosine and potassium bromide preincubated for 10 mins followed by tyrosine/potassium bromide/H2O2 addition and measured after 15 mins by RP-UPLC analysis
Would you mind telling me the reported IC50 of each entry?
Your answer is read as nM, so omit the unit and give the number.

For this compound ( Nc1nc(OCc2ccccc2)c2[nH]nnc2n1 ), measured IC50 is 15

So for Nc1ccc(Oc2cc(Cl)c(Cl)cc2Cl)cn1 , the logged IC50 turned out to be 160

* * *

# assayedTarget: Lactoperoxidase (Homo sapiens, UniProt P22079)
# Sequence (P22079 whole entry, the tested form may be a part, canonical isoform): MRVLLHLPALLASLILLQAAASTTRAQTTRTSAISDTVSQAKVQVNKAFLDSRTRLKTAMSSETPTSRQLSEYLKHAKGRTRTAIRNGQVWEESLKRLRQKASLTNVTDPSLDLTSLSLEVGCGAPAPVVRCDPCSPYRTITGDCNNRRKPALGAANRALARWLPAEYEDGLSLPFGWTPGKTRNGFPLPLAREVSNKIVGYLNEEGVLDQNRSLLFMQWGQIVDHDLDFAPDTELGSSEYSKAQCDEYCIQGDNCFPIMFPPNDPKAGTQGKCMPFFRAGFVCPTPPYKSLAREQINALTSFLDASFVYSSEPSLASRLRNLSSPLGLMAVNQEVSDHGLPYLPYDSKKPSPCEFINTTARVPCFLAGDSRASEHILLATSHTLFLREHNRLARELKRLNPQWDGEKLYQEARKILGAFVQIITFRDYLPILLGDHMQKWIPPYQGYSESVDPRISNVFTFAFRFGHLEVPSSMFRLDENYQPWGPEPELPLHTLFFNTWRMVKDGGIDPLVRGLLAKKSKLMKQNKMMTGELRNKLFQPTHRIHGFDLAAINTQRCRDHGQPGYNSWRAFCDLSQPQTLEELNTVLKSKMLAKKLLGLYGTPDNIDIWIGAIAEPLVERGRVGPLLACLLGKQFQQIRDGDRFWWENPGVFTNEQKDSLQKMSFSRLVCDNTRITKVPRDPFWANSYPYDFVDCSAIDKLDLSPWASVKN
# procedureDetails: Inhibition of recombinant human LPO isoform-1 (26 to 712 residues) expressed in baculovirus infected insect cells assessed as reduction in H2O2-catalyzed 3,5-iodo tyrosine formation using 3-iodotyrosine and potassium iodide preincubated for 10 mins followed by 3,5-iodo tyrosine/potassium iodide/H2O2 addition and measured after 15 mins
observable: pIC50
Conceptually, pIC50 converts a concentration in mol/L into minus its log10.

Record summary for Nc1ccc(Oc2cc(Cl)c(Cl)cc2Cl)cn1 : reported pIC50 = 4.89

* * *

# assayedTarget: UniProtKB P20813
# Sequence (P20813 whole entry): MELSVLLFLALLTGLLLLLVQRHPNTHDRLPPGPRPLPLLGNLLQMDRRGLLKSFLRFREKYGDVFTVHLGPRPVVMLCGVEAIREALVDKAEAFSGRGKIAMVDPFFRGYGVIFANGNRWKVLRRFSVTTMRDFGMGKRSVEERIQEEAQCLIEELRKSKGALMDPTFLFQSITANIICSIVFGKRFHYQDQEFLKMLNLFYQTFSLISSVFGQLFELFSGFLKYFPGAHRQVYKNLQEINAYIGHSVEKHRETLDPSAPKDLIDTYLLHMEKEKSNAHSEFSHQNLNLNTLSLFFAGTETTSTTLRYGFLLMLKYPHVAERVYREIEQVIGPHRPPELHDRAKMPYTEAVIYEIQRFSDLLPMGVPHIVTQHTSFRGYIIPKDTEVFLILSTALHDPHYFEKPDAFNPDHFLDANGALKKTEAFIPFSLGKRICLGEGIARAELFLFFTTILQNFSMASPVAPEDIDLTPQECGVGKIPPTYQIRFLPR
pIC50: −log10 of the molar value.
observable: pIC50

Recorded pIC50 for Nc1ccc(Oc2cc(Cl)c(Cl)cc2Cl)cn1 on UniProtKB P20813 was > 7.00
